src = ChEMBL document CHEMBL3132805

Test name: Binding affinity to duplex DNA (unknown origin) assessed as change in melting temperature
Measure: ΔTm (°C)
Unit °C implied. Number only.

input: Please look at this molecule and report its ΔTm: "COc1ccc2c(CCCCC(c3ccccc3)c3ccccc3)c3[n+](cc2c1OC)CCc1cc2c(cc1-3)OCO2"
output: 17

input: Identify ΔTm associated with the molecule "COc1ccc2c(CCCCCC(c3ccccc3)c3ccccc3)c3[n+](cc2c1OC)CCc1cc2c(cc1-3)OCO2"
output: 16.6

input: Indicate the recorded ΔTm value for this molecule: "COc1ccc2c(C(c3ccccc3)c3ccccc3)c3[n+](cc2c1OC)CCc1cc2c(cc1-3)OCO2"
output: 6

input: Identify ΔTm associated with the molecule "COc1ccc2c(CCCC(c3ccccc3)c3ccccc3)c3[n+](cc2c1OC)CCc1cc2c(cc1-3)OCO2"
output: 19

input: Give ΔTm for "COc1ccc2c(CC(c3ccccc3)c3ccccc3)c3[n+](cc2c1OC)CCc1cc2c(cc1-3)OCO2"
output: 7

input: Using known records, supply ΔTm for "COc1ccc2cc3[n+](cc2c1OC)CCc1cc2c(cc1-3)OCO2"
output: 13

input: Tell me ΔTm reported for "COc1ccc2c(CCC(c3ccccc3)c3ccccc3)c3[n+](cc2c1OC)CCc1cc2c(cc1-3)OCO2"
output: 16
